Tested on: human lymphoblastoid TK6 cells
procedure summary: MultiFlow DNA Damage assay (γH2AX, p53, p-H3, polyploidy)
Type: cell-based
details: +S9; TK6 cells, 4H and 24H sampling
experimental readout: MultiFlow summary classification (call and MoA)

{"columns": ["molecule", "value observed"],
 "data": [
  ["Cc1ccc(O)c(N)c1", "+ C"],
  ["Cc1cc(C)n(CO)n1", "+ C"],
  ["COc1ccc(NCCO)cc1N", "+ C"],
  ["Nc1cccc(N)n1", "+ C"],
  ["CCN(CC)c1cccc(O)c1", "+ C/A"],
  ["O=[N+]([O-])c1cc(O)ccc1NCCCO [NSACB 9, 4-[(3-hydroxypropyl)amino]-3-nitrophenol]", "+ C"],
  ["Cc1ccc(NCCO)c([N+](=O)[O-])c1 [NSACB 8, 2-[(4-methyl-2-nitrophenyl)amino]ethanol]", "-"],
  ["COc1cc([C@@H]2c3cc4c(cc3[C@@H](O[C@@H]3O[C@@H]5CO[C@@H](C)O[C@H]5[C@H](O)[C@H]3O)[C@H]3COC(=O)[C@H]23)OCO4)cc(OC)c1O [EPEG, Etoposide, reference compound]", "+ C"],
  ["Cc1c2ccccc2c(C)c2c1ccc1ccccc12 [DMBA, 7,12-dimethylbenz[a]anthracene, reference compound]", "+ C"],
  ["COc1cc([N+](=O)[O-])ccc1O", "-"],
  ["OC[C@@H](O)[C@@H](O)[C@H](O)[C@H](O)CO [DMANN, D-mannitol, reference compound]", "-"]
]}

====

System: human lymphoblastoid TK6 cells
procedure summary: MultiFlow DNA Damage assay (γH2AX, p53, p-H3, polyploidy)
Format: cell-based
details: -S9; TK6 cells, 4H and 24H sampling
Description: Treated cells were gently resuspended and 25 µL/well was mixed thoroughly with the labeling solution. The plate was incubated for 30 min at room temperature shielded from light. The γH2AX and p53 endpoints were measured based on their median fluorescence intensity (i.e., mean channel fluorescence or MCF) relative to the DMSO solvent control. The p-H3 and polyploidy endpoints were measured based on their frequencies among all events (i.e., all 2n–4n and polyploidy (8n) DNA content). […]
experimental readout: MultiFlow summary classification (call and MoA)

{"columns": ["molecule", "value observed"],
 "data": [
  ["Cc1cc(C)n(CO)n1", "+ C"],
  ["Cc1ccc(NCCO)c([N+](=O)[O-])c1 [NSACB 8, 2-[(4-methyl-2-nitrophenyl)amino]ethanol]", "-"],
  ["CCN(CC)c1cccc(O)c1", "+ C"],
  ["Cc1ccc(O)c(N)c1", "-"],
  ["OC[C@@H](O)[C@@H](O)[C@H](O)[C@H](O)CO [DMANN, D-mannitol, reference compound]", "-"],
  ["COc1cc([N+](=O)[O-])ccc1O", "-"],
  ["O=[N+]([O-])c1cc(O)ccc1NCCCO [NSACB 9, 4-[(3-hydroxypropyl)amino]-3-nitrophenol]", "+ C"]
]}

====

procedure summary: Viability assessment (propidium iodide fluorescence, flow cytometry)
details: human, TK6 lymphoblastoid cells with S9
experimental readout: viability at 24 h

{"columns": ["compound", "experimental readout", "value observed"],
 "data": [
  ["Cc1ccc(NCCO)c([N+](=O)[O-])c1 [NSACB 8, 2-[(4-methyl-2-nitrophenyl)amino]ethanol]", "viability at 24 h", "46%"],
  ["Nc1ccc(Cl)cc1C(=O)c1ccccc1", "viability at 24 h", "43%"]
]}

====

Tested on: human lymphoblastoid TK6 cells
procedure summary: MultiFlow DNA Damage assay (γH2AX, p53, p-H3, polyploidy)
Type: cell-based
details: -S9; TK6 cells, 4H and 24H sampling
experimental readout: MultiFlow summary classification (call and MoA)

{"columns": ["compound", "value observed"],
 "data": [
  ["COc1cc([C@@H]2c3cc4c(cc3[C@@H](O[C@@H]3O[C@@H]5CO[C@@H](C)O[C@H]5[C@H](O)[C@H]3O)[C@H]3COC(=O)[C@H]23)OCO4)cc(OC)c1O [EPEG, Etoposide, reference compound]", "+ C"],
  ["COc1ccc(NCCO)cc1N", "+ C"],
  ["Nc1cccc(N)n1", "+ C"],
  ["Cc1c2ccccc2c(C)c2c1ccc1ccccc12 [DMBA, 7,12-dimethylbenz[a]anthracene, reference compound]", "-"]
]}

====

System: human lymphoblastoid TK6 cells
procedure summary: TGx-DDI transcriptomic biomarker classification (TempO-Seq S1500+) and BMC modeling
details: across concentrations and the three statistical analyses
experimental readout: Strength / consistency of TGx-DDI response (text)

{"columns": ["smiles input", "value observed"],
 "data": [
  ["Cc1ccc(O)c(N)c1", "weaker DDI responses"],
  ["Cc1cc(C)n(CO)n1", "weaker DDI responses"],
  ["CCN(CC)c1cccc(O)c1", "weaker DDI responses"],
  ["Nc1cccc(N)n1", "strongest responses"],
  ["COc1ccc(NCCO)cc1N", "strongest responses"]
]}

====

Test system: human lymphoblastoid TK6 cells
procedure summary: TGx-DDI transcriptomic biomarker classification (TempO-Seq S1500+) and BMC modeling
details: -S9; TK6 cells, 4H exposure

{"columns": ["molecule", "TGx-DDI summary classification"],
 "data": [
  ["Cc1ccc(NCCO)c([N+](=O)[O-])c1 [NSACB 8, 2-[(4-methyl-2-nitrophenyl)amino]ethanol]", "-"],
  ["Nc1ccc(Cl)cc1C(=O)c1ccccc1", "-"],
  ["COc1cc([C@@H]2c3cc4c(cc3[C@@H](O[C@@H]3O[C@@H]5CO[C@@H](C)O[C@H]5[C@H](O)[C@H]3O)[C@H]3COC(=O)[C@H]23)OCO4)cc(OC)c1O [EPEG, Etoposide, reference compound]", "+"],
  ["O=[N+]([O-])c1cc(O)ccc1NCCCO [NSACB 9, 4-[(3-hydroxypropyl)amino]-3-nitrophenol]", "+"],
  ["COc1ccc(NCCO)cc1N", "+"],
  ["OC[C@@H](O)[C@@H](O)[C@H](O)[C@H](O)CO [DMANN, D-mannitol, reference compound]", "-"]
]}

====

System: human lymphoblastoid TK6 cells
procedure summary: TGx-DDI transcriptomic biomarker classification (TempO-Seq S1500+) and BMC modeling
details: overall call from 2-DC, PCA, NSC-PA; S9 condition as in Figure 1
experimental readout: TGx-DDI classification

{"columns": ["compound", "value observed"],
 "data": [
  ["OC[C@@H](O)[C@@H](O)[C@H](O)[C@H](O)CO [DMANN, D-mannitol, reference compound]", "non-DDI"],
  ["Cc1ccc(O)c(N)c1", "DDI"],
  ["COc1cc([C@@H]2c3cc4c(cc3[C@@H](O[C@@H]3O[C@@H]5CO[C@@H](C)O[C@H]5[C@H](O)[C@H]3O)[C@H]3COC(=O)[C@H]23)OCO4)cc(OC)c1O [EPEG, Etoposide, reference compound]", "DDI"],
  ["COc1cc([N+](=O)[O-])ccc1O", "non-DDI"],
  ["Nc1ccc(Cl)cc1C(=O)c1ccccc1", "DDI"],
  ["Cc1cc(C)n(CO)n1", "DDI"],
  ["CCN(CC)c1cccc(O)c1", "DDI"],
  ["Cc1c2ccccc2c(C)c2c1ccc1ccccc12 [DMBA, 7,12-dimethylbenz[a]anthracene, reference compound]", "DDI"],
  ["Cc1ccc(NCCO)c([N+](=O)[O-])c1 [NSACB 8, 2-[(4-methyl-2-nitrophenyl)amino]ethanol]", "DDI"]
]}

====

System: human lymphoblastoid TK6 cells
procedure summary: TGx-DDI transcriptomic biomarker classification (TempO-Seq S1500+) and BMC modeling
details: +S9 (rat liver S9); TK6 cells, 4H exposure, 3 h recovery

{"columns": ["compound", "TGx-DDI summary classification"],
 "data": [
  ["OC[C@@H](O)[C@@H](O)[C@H](O)[C@H](O)CO [DMANN, D-mannitol, reference compound]", "-"],
  ["COc1ccc(NCCO)cc1N", "+"],
  ["COc1cc([N+](=O)[O-])ccc1O", "-"],
  ["Cc1ccc(NCCO)c([N+](=O)[O-])c1 [NSACB 8, 2-[(4-methyl-2-nitrophenyl)amino]ethanol]", "+"],
  ["Cc1cc(C)n(CO)n1", "+"]
]}

====

Test system: human lymphoblastoid TK6 cells
procedure summary: In vitro MicroFlow assay (flow cytometry-based micronucleus test)
details: +S9; TK6 cells, 4H exposure, 24-h sampling
experimental readout: MicroFlow summary classification (MN induction)

{"columns": ["compound", "value observed"],
 "data": [
  ["Nc1ccc(Cl)cc1C(=O)c1ccccc1", "+"],
  ["Cc1ccc(O)c(N)c1", "+"],
  ["Nc1cccc(N)n1", "+"],
  ["Cc1c2ccccc2c(C)c2c1ccc1ccccc12 [DMBA, 7,12-dimethylbenz[a]anthracene, reference compound]", "+"],
  ["Cc1ccc(NCCO)c([N+](=O)[O-])c1 [NSACB 8, 2-[(4-methyl-2-nitrophenyl)amino]ethanol]", "+"],
  ["Cc1cc(C)n(CO)n1", "+"],
  ["COc1cc([C@@H]2c3cc4c(cc3[C@@H](O[C@@H]3O[C@@H]5CO[C@@H](C)O[C@H]5[C@H](O)[C@H]3O)[C@H]3COC(=O)[C@H]23)OCO4)cc(OC)c1O [EPEG, Etoposide, reference compound]", "+"],
  ["COc1cc([N+](=O)[O-])ccc1O", "+"],
  ["O=[N+]([O-])c1cc(O)ccc1NCCCO [NSACB 9, 4-[(3-hydroxypropyl)amino]-3-nitrophenol]", "+"],
  ["COc1ccc(NCCO)cc1N", "+"]
]}
